Test system: BT-549 breast
experiment.summary: NCI tumour cell line growth inhibition, 48 h

# molecule, target, GI50
records = [
    ("O=c1c2ccccc2c(/C=N\\NC2=NCCN2)c2oc3ccccc3n12", "BT-549 breast", "31.3 µM"),
    ("CN(C)CC(=O)Nc1ccc2ncnc(Nc3ccc(Oc4cccc(C(F)(F)F)c4)c(Cl)c3)c2c1", "BT-549 breast", "3.91 µM"),
    ("COc1ccc(C2CC(c3ccc(Nc4ccnc5cc(Cl)ccc45)cc3)=NN2C=O)cc1 (centres undefined)", "BT-549 breast", "10.9 µM"),
    ("CC(C)(C)CC(C)(C)c1ccc(O)c(Cc2ccc(Cl)cc2Cl)c1", "BT-549 breast", "2.03 µM"),
    ("CC(=O)CC/C=C(\\C)[C@H](O)[C@H](C)C(=O)O[C@H]1C[C@H](C)C=C2C=C[C@@]3(C)O[C@@H](O)CC(=O)[C@]3(C)[C@H]21", "BT-549 breast", "0.781 µM"),
    ("O=C(O)c1cc(=O)cc(C(=O)O)o1", "BT-549 breast", "> 100 µM"),
    ("COc1ccc(NC2=C(I)C(=O)c3ncccc3C2=O)cc1", "BT-549 breast", "1.27 µM"),
    ("COc1cc([N+](=O)[O-])c(OC)cc1-c1nc2sc(C)cn2c1/C(N)=N/C(=N)N", "BT-549 breast", "29.8 µM"),
    ("Oc1c(Cl)cc(Cl)cc1/C=N/Nc1nnc(N/N=C/c2cc(Cl)cc(Cl)c2O)c2ccccc12", "BT-549 breast", "0.549 µM"),
]

----------
Tested on: OVCAR-8 ovarian
experiment.summary: NCI tumour cell line growth inhibition, 48 h
The following compounds are shown together with reported TGI values.
measured.endpoint: TGI (µM)

# compound, measured.endpoint, unit.abbreviation, result.modifier, val
measured = [
    ("COc1ccc(C(=O)c2c3cc(OC)c(OC)c(OC)c3cc[n+]2C)cc1", "TGI", "µM", ">", 100),
    ("O=C(O)C1(Cc2ccccc2)Cc2cc3c(cc2C1)CCC3", "TGI", "µM", ">", 100),
    ("Oc1[nH]c(=S)[nH]c1/C=C1/C(c2ccccc2)=Nc2ccccc21", "TGI", "µM", "=", 28.8),
    ("CC(C)(C)c1cc(/C=N/NC(=O)c2ccccc2NC(=O)c2cccs2)c(O)c(C(C)(C)C)c1", "TGI", "µM", "=", 11.2),
    ("CNC(=O)C1(C#N)C(c2ccccc2)C(C#N)(C(=O)NC)C1c1ccccc1 (stereo not given)", "TGI", "µM", ">", 100),
    ("COc1ccc(NC(C)=O)cc1N1C(=O)/C(=C\\c2ccccc2)SC1c1cc(OC)c(OC)c(OC)c1 (stereo not given)", "TGI", "µM", "=", 71.4),
    ("O=C(NCCC1CN(C(=O)OCc2ccccc2)c2ccccc21)OCc1ccccc1 (stereo not given)", "TGI", "µM", ">", 100),
    ("COc1cc(C2OC(N)=C(C#N)C3=C2C(C)CCC3)cc(OC)c1OC (stereo not given)", "TGI", "µM", ">", 100),
    ("C=C1C(=O)O[C@@H]2/C=C(\\C)CC/C=C(\\C)CC[C@@]12O", "TGI", "µM", "=", 5.18),
    ("COc1ccc(C2ON(c3ccccc3)CC=C2C)cc1 (stereo not given)", "TGI", "µM", ">", 100),
]

----------
System: MALME-3M melanoma
experiment.summary: NCI tumour cell line growth inhibition, 48 h
The following molecules are shown together with reported TGI values.

# molecule, unit.abbreviation, result.modifier, TGI
rows = [
    ("CC(=O)NCCCCN(CCCNC(C)=O)C(=O)CNS(=O)(=O)c1cccc2c(N(C)C)cccc12", "µM", ">", 100),
    ("CC(C)CCNC(=O)C(CC(C)C)NC(=O)[C@H]1O[C@@H]1C(=O)O (stereo not given in full)", "µM", ">", 100),
    ("O=C(Cc1nc2ccccc2o1)C(=O)Nc1cccc(Cl)c1", "µM", ">", 100),
    ("CC(C)[C@@](O)(c1ccc2cc(OC(F)F)c(OC(F)F)cc2c1)c1cn[nH]n1", "µM", "=", 39.2),
    ("O=c1cnnc(N/N=C/c2ccccc2O)[nH]1", "µM", "=", 47.5),
    ("CNC1Cc2c[nH]c3cccc(c23)C12C=C(C)C(=O)O2 (stereo not given)", "µM", ">", 100),
    ("CN(C)CC(=O)Nc1ccc2ncnc(Nc3ccc(Oc4cccc(C(F)(F)F)c4)c(Cl)c3)c2c1", "µM", "=", 3.36),
    ("COc1cc(-c2nc3sc(C)cn3c2/C=C2\\C(=O)Nc3ccccc32)c(Br)c(OC)c1OC", "µM", "=", 78.5),
    ("Cc1ccc(OCC2OC(n3cnc4nc(Nc5ccc(Cl)c(Cl)c5)nc(Cl)c43)CC2Oc2ccc(C)cc2)cc1 (stereo not given)", "µM", ">", 100),
    ("Oc1[nH]c(=S)[nH]c1/C=C1/C(c2ccccc2)=Nc2ccccc21", "µM", "=", 26.4),
    ("CC(C)(C)c1cc(/C=N/NC(=O)c2ccccc2NC(=O)c2cccs2)c(O)c(C(C)(C)C)c1", "µM", "=", 26.7),
    ("COC1(C)C(=O)N2C1N(C(=O)OC(C)(C)C)CC2(C)C (stereo not given)", "µM", ">", 100),
    ("CC(=O)c1cc2c(s1)C(=O)c1sccc1C2=O", "µM", "=", 0.0313),
    ("CC(C)(C)CC(C)(C)c1ccc(O)c(Cc2ccc(Cl)cc2Cl)c1", "µM", "=", 3.24),
    ("COC(=O)c1ccc(/C=C(\\c2ccc([N+](=O)[O-])o2)S(=O)(=O)c2ccc(NC(C)=O)cc2)o1", "µM", "=", 8.91),
    ("Cn1cc(-c2nc(-c3c[nH]c4ncccc34)cs2)c2ccccc21", "µM", ">", 100),
    ("COC(=O)[C@]12CC[C@@H](C)[C@H](C)[C@@H]1C1=CC[C@@H]3[C@@]4(C)C[C@@H](OC(=O)/C=C/c5ccccc5)[C@H](O)[C@@](C)(CO)[C@@H]4[C@H](O)C[C@@]3(C)[C@]1(C)CC2", "µM", "=", 10.9),
    ("Clc1cc(Cl)c2cc3cccc[n+]3cc2c1Cl", "µM", "=", 53.7),
    ("Cc1ccc(/C=C(\\NC(=O)c2ccccc2)c2nc3ccccc3[nH]2)cc1", "µM", ">", 100),
    ("NC(=S)N/N=C1\\c2ccccc2-c2c(F)c(F)c(F)c(F)c21", "µM", "=", 21.1),
]

----------
System: UACC-62 melanoma
experiment.summary: NCI tumour cell line growth inhibition, 48 h; in the data active = GI50 below about 0.43 µM; inactive = the rest
Classes used: active, inactive

# compound, class.name
data = [
    ("CC(C)(C)CC(C)(C)c1ccc(O)c(Cc2ccc(Cl)cc2Cl)c1", "inactive"),
    ("COc1cc([N+](=O)[O-])c(OC)cc1-c1nc2sc(C)cn2c1/C(N)=N/C(=N)N", "inactive"),
    ("COc1cc(/C=C/c2cc(/C=C/c3ccc(O)c(OC)c3)n(C(=O)Nc3ccccc3Cl)n2)ccc1O", "active"),
]

----------
System: M14 melanoma
experiment.summary: NCI tumour cell line growth inhibition, 48 h

# compound, GI50
rows = [
    ("N#Cc1c(NC(=O)c2ccc(F)cc2)sc2c1CCCC2", "> 25 µM"),
    ("COC(=O)[C@]12CC[C@@H](C)[C@H](C)[C@@H]1C1=CC[C@@H]3[C@@]4(C)C[C@@H](OC(=O)/C=C/c5ccccc5)[C@H](O)[C@@](C)(CO)[C@@H]4[C@H](O)C[C@@]3(C)[C@]1(C)CC2", "2.65 µM"),
    ("CC1(C)N=C(N)N=C(N)N1c1ccc(OCCCNC(=O)Nc2cccc(S(=O)(=O)F)c2)c(Cl)c1", "3.26 µM"),
    ("O=c1c2ccccc2c(/C=N\\NC2=NCCN2)c2oc3ccccc3n12", "34.4 µM"),
    ("CC(C)[C@@](O)(c1ccc2cc(OC(F)F)c(OC(F)F)cc2c1)c1cn[nH]n1", "16 µM"),
    ("O=C(c1ccc(C(F)(F)F)c(Cl)c1)N(Cc1ccc(Cl)cc1)c1ccc(-c2cc(C(F)(F)F)[nH]n2)c(O)c1", "1.01 µM"),
    ("Cc1cnc2oc3ccc(O)cc3c2c1-c1ccccc1", "> 100 µM"),
    ("O=c1cnnc(N/N=C/c2ccccc2O)[nH]1", "0.449 µM"),
    ("COc1ccc(C(=NN=C(N)N)c2ccc(OC)cc2)cc1", "2.35 µM"),
    ("NC1CCCCC1N.O=C1C=C/C(=C(/c2ccc(O)c(Br)c2)c2ccccc2S(=O)(=O)[O-])C=C1Br.O=C1C=C/C(=C(/c2ccc(O)c(Br)c2)c2ccccc2S(=O)(=O)[O-])C=C1Br.[Pt+4]", "7.77 µM"),
    ("CC(C)(C)CC(C)(C)c1ccc(O)c(Cc2ccc(Cl)cc2Cl)c1", "1.61 µM"),
    ("C#Cc1cccc(Nc2ncnc3ccc(OCCCCNCCS(C)(=O)=O)cc23)c1", "5.11 µM"),
    ("N#CC(C#N)=C1CCOc2ccc(F)cc21", "19.5 µM"),
    ("CC1(C)N=C(N)N=C(N)N1c1ccc(Cl)cc1", "5.52 µM"),
    ("COc1ccc(CCN(CC(=O)N(CC(N)=O)C2CCC[C@@H]2OCc2ccccc2)C(=O)CN(C(=O)CN(CCc2ccc(Cl)cc2)C(=O)CN(C(=O)CN(C)Cc2ccccc2F)[C@H](C)C2CCCCC2)[C@H](C)C2CCCCC2)cc1OC (some centres undefined)", "1.13 µM"),
    ("C=CC(=O)N1C[C@@H]2CCOc3c(Cl)c(-c4c(O)cccc4F)c(F)c4ncnc(c34)N2C[C@H]1C", "12.5 µM"),
    ("COc1cc(/C=C2\\CCC/C(=C\\c3ccc(O)c(OC)c3)C2=O)ccc1O", "1.92 µM"),
    ("COc1cc(/C=C/c2cc(/C=C/c3ccc(O)c(OC)c3)n(C(=O)Nc3ccccc3Cl)n2)ccc1O", "0.283 µM"),
    ("O=C1c2cccnc2C(=O)c2c1c(C(=O)OCCN1CCCCC1)c1ccccn21", "0.0147 µM"),
]

Just for reference, PubChem BioAssay (NCI) is where these values come from.
